# System: HEK-293T
# ASSAY REMARKS: Incucyte cell viability with HEK293T; note: unitless GR value; below 1 slowed growth and below 0 cell loss
# Format: toxicity, cell-based
# DETAILS: human, 12 h, 10 µM, compound concentration 10 uM, replicate number 1, timepoint 12 hours
Below, each entry is listed alongside its reported Growth Rate.

{"COMPOUND": "O=c1nc2[nH]c3ccccc3nc-2c(=O)[nH]1", "Growth Rate": 0.97}
{"COMPOUND": "N=C(N)NCCC[C@H](NC(=O)COCC(c1ccccc1)c1ccccc1)C(=O)O.O=C(O)C(F)(F)F", "Growth Rate": 0.7}
{"COMPOUND": "NCCc1cn(S(=O)(=O)c2c(Cl)nc3sccn23)c2ccccc12.O=C(O)C(=O)O", "Growth Rate": 0.22}
{"COMPOUND": "Cc1cc(Cn2cnc3c2C[C@@H](C(=O)O)N(C(=O)C(c2ccccc2)c2ccccc2)C3)ccc1N(C)C", "Growth Rate": 0.72}
{"COMPOUND": "Cl.N=C(N)NC(=O)Cc1c(Cl)cccc1Cl [GUANFACINE HYDROCHLORIDE]", "Growth Rate": 0.84}

Which Growth Rate value belongs to CCCCCCCCc1ccc(CC[C@](N)(CO)COP(=O)(O)O)cc1 ? -0.14

Report Growth Rate for CCCCCCCCCCCCC/C=C/[C@@H](O)[C@@H](N)COP(=O)([O-])OCC[N+](C)(C)C please. 0.28

For the compound shown here, O=c1ccn([C@@H]2O[C@H](COP(=O)([O-])OP(=O)([O-])OP(=O)([O-])OP(=O)([O-])OC[C@H]3O[C@@H](n4ccc(=O)[nH]c4=O)[C@H](O)[C@@H]3O)[C@@H](O)[C@H]2O)c(=O)[nH]1.[Na+].[Na+].[Na+].[Na+] [DIQUAFOSOL TETRASODIUM] , give the reported Growth Rate. 0.73

What value of Growth Rate has been recorded for this entry: CCCCC/C=C\C/C=C\C/C=C\C/C=C\CCCC(=O)OC(CO)CO 0.72

Any idea what Growth Rate was measured for CN(C)CCN(Cc1ccc(-c2ccc(CNCCc3ccccc3)cc2)cc1)C(=O)CCC1CCCC1.Cl.Cl ? -0.74

Please report the recorded Growth Rate for Cl.Clc1cccc(Cl)c1NC1=NCCN1 [CLONIDINE HYDROCHLORIDE] . 0.74

Could you tell me which Growth Rate is on file for CCN1/C(=C/C(C)=O)Sc2ccc(OC(C)=O)cc21 ? 0.29

Given the compound CSc1ccccc1N1CCN(CCCCCC(=O)NC2CCCc3ccccc32)CC1.Cl (stereo unspecified) , what is its reported Growth Rate? 0.07

* * *

Growth Rate reference
# Tested on: HEK-293T
# ASSAY REMARKS: Incucyte cell viability with HEK293T; note: unitless GR value; below 1 slowed growth and below 0 cell loss
# Format: toxicity, cell-based
# DETAILS: human, 24 h, 10 µM, compound concentration 10 uM, replicate number 1, timepoint 24 hours
Format: numeric value only, no unit, no commentary.

Consider the worked cases shown below.
{"MOLECULE": "CCCn1c(=O)c2[nH]c(C3CCCC3)nc2n(CCC)c1=O", "Growth Rate": 0.72}
{"MOLECULE": "CCCCC/C=C\\C/C=C\\C/C=C\\C/C=C\\CCCC(=O)OC(CO)CO", "Growth Rate": 0.67}
{"MOLECULE": "C[C@H](CCC(=O)O)[C@H]1CC[C@H]2[C@@H]3CC[C@@H]4C[C@H](O)CC[C@]4(C)[C@H]3CC[C@]12C", "Growth Rate": 0.76}
{"MOLECULE": "C[C@@H](c1ccc(F)cc1)n1nnc2cnc3ccc(-c4ccc5ocnc5c4)cc3c21", "Growth Rate": 0.23}

Short answer please: Growth Rate, HEK-293T, entry CC(=O)c1ccc2c(c1)[C@@H]1C=CC[C@@H]1[C@H](c1cc3c(cc1Br)OCO3)N2 -0.12

Write down the reported Growth Rate of O=C(Nc1cc(-c2cn[nH]c2)ccc1N1CCOCC1)c1ccc(-c2ccc3ncccc3c2)o1 , test system: HEK-293T. 0.15

# get_value(readout= Growth Rate, system= HEK-293T) for COc1cc2nc(N(C)CCCNC(=O)C3CCCO3)nc(N)c2cc1OC.Cl (stereo not drawn) [ALFUZOSIN HYDROCHLORIDE] 0.99

Please tell me: Growth Rate of COc1cccc2c1c(NS(=O)(=O)c1ccc(Cl)s1)nn2Cc1cccc(CNC(=O)C(C)(C)O)c1 , system HEK-293T? 0.38

These data points were gathered from ChEMBL document CHEMBL5058564.
